- Test system: SR leukemia
- measurement description: NCI-60 one-dose screen, 48 h (100 = growth as untreated, 0 = no growth, -100 = all killed)
- condition description: 10 µM unless noted
- Experimental: Growth inhibition of the SR human tumor cell line is measured as a screen for anti-cancer activity. Cells are grown in 96 well plates and exposed to the test compound for 48 hours. Compounds are tested at a single concentration, which is 10^-5 M for most compounds. The reported endpoint is percent growth (GI% or GIPRCNT), where numbers from 0 - 100% represent growth inhibition, and numbers from -100% - 0 represent cell death. For example, a value of 40 represents 60% growth inhibition. […]
The panel holds about 83,000 compounds, 20% with a hit somewhere; the sample as a whole holds those more often.
parameter measured: growth (%)
One number for each entry, in %.

[[record]]
molecule = "C=C[C@@H]1C[C@H](O)Cc2c(C)cc(C)cc2N1"
reading = 82.8

[[record]]
molecule = "CC(C)(C)OC(=O)NCCc1ccc(N=C=S)cc1"
reading = 22.5

[[record]]
molecule = "Cc1nc2c3c(ncn2n1)Oc1c(c(=O)[nH]c2ccccc12)C3c1ccc(Cl)cc1 (stereo not given)"
reading = 100

[[record]]
molecule = "CC(C)(C)n1cc(-c2ccnc(NCCCNS(=O)(=O)c3ccc(Br)cc3)c2)c(-c2cccc(O)c2)n1"
reading = -16


Field request: growth | item: `C[n+]1c(/C=C/c2c(O)ccc3ccccc23)ccc2ccccc21`
-36.2

----------
- Tested on: SF-539 CNS
- measurement description: NCI-60 one-dose screen, 48 h (100 = growth as untreated, 0 = no growth, -100 = all killed)
- condition description: 10 µM unless noted
This is part of a sample that, as a whole, favours compounds with a hit. Of some 83,000 tested, about 20% had one in any assay.
# cutoff 90% applies to growth; >= gives class 1, < gives class 0

Record excerpt, results attached:
[[record]]
compound = "CCN(CC)CCC(CNc1ccnc2cc(Cl)ccc12)c1ccccc1 (stereo not given)"
qualitative_label = "class 0"

[[record]]
compound = "COc1ccc(N=Cc2c(O)ccc3c2oc2cc(Cl)c(O)c(Cl)c23)cc1"
qualitative_label = "class 1"

[[record]]
compound = "COc1ccc(N2CCN(Cc3cc(C(=O)/C=C/c4c[nH]c5ccccc45)ccc3O)CC2)cc1"
qualitative_label = "class 1"

[[record]]
compound = "COc1ccc(-c2[nH]nc(N)c2-c2cc(OC)c3c(c2)OCO3)cc1"
qualitative_label = "class 0"

[[record]]
compound = "CC[N+](CC)=c1cc2oc3cc(N(C)C)ccc3nc-2cc1C"
qualitative_label = "class 0"

[[record]]
compound = "COc1ccc(S(=O)(=O)n2cc(C(=O)C(=O)Nc3ccncc3)c3ccccc32)cc1F"
qualitative_label = "class 0"

[[record]]
compound = "O=[N+]([O-])c1ccc(/C=C/C2(CCl)OCCO2)cc1"
qualitative_label = "class 1"

[[record]]
compound = "S=c1[nH]nc(-c2cc3ccc2CCc2ccc(cc2)CC3)n1C1CC1"
qualitative_label = "class 1"


Given the entry `O=C(Nc1ccncc1)C(=O)c1cn(S(=O)(=O)c2ccc(Br)cc2)c2ccccc12` , answer whether its growth meets or surpasses 90%.
class 0

Decide: is the reported value of growth for CN(CCCCCl)P(=O)(OCc1ccc([N+](=O)[O-])o1)C(F)(F)C[C@H](NC(=O)CNC(=O)c1ccc(N=[N+]=[N-])cc1)C(=O)NCCc1ccc(O)cc1 (stereo not given in full) equal to or greater than 90%?
class 1

Dear colleague, could you confirm whether `COc1cc(NC(N)=NCCC(C)(C)Oc2ccc(C(F)(F)F)cc2)ncc1C#N` has growth at or above 90%?
class 0
